List of Ki values.
- experimental.system: human σ2/TMEM97 receptor (Homo sapiens, UniProt Q5BJF2)
- Construct: expressed in transfected cells; host or cells: HEK-293
- Sequence (Q5BJF2 whole entry): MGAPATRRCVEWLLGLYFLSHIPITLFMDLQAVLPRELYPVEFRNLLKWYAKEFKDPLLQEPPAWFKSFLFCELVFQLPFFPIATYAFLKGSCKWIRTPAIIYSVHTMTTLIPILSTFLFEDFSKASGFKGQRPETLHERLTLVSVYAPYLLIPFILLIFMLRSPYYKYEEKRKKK
- measurement.protocol: Binding assay to human σ2/TMEM97 receptor ([3H]-DTG)
- stated.conditions: transfected HEK-293 membranes, 10 nM [3H]-DTG, 25° C., 120 minutes; read-out: Binding σ-[…] (binding to σ2-receptor expressed as Ki)
- Protocol: Binding Assay to Human σ2/TMEM97 Receptor. Transfected HEK-293 membranes (15 μg) were incubated with 10 nM [^3H]-1,3-Di-o-tolylguanidine (DTG) in assay buffer containing Tris-HCl 50 mM at pH 8.0. NSB (non-specific binding) was measured by adding 10 μM haloperidol. […] Filters were dried and counted at approximately 40% efficiency in a MicroBeta scintillation counter (Perkin-Elmer) using EcoScint liquid scintillation cocktail.

Solved entries:
# compound, Ki
data = [
    ("Cc1ccc2c(n1)C(C)(C)CN2C(=O)NC1CCN(Cc2ccccc2)CC1 [Example 1]", "> 1000 nM"),
    ("CC1(C)CN(C(=O)N2CCC3(CCN(Cc4cccc(C#N)c4)CC3)C2)c2cccnc21 [Example 90]", "< 100 nM"),
    ("CC1(C)CN(C(=O)N2CCC3(CCN(Cc4ccccc4)CC3)C2)c2cccnc21 [Example 89]", "< 100 nM"),
    ("Cc1ccc2c(n1)C(C)(C)CN2C(=O)NC1CCN(CC(C)C)CC1 [Example 41]", "> 1000 nM"),
]

Query: Ki; subject: CN(Cc1ccc(C#N)c(F)c1)C1CCN(C(=O)N2CC(C)(C)c3ncccc32)CC1 [Example 87] < 100 nM

Same question, Cc1ccc2c(n1)C(C)(C)CN2C(=O)NC1CCN(Cc2cccc(C#N)c2)CC1 [Example 23] this time > 1000 nM

Same question, Cc1ccc2c(n1)C(C)(C)CN2C(=O)N1CCCCC(NCCC(C)C)C1 (centres unmarked) [Example 120] this time < 100 nM

Same question, CCN[C@@H](CNC(=O)N1CC(C)(C)c2nc(C)ccc21)c1ccccc1 [Example 113] this time > 1000 nM

Same question, Cc1ccc2c(n1)C(C)(C)CN2C(=O)N1CCC(N(C)Cc2cccc(S(C)(=O)=O)c2)CC1 [Example 56] this time 500 to 1000 nM

Same question, Cc1ccc2c(n1)C(C)(C)CN2C(=O)N1CCC2(CCN(Cc3ccc(C#N)c(F)c3)CC2)CC1 [Example 163] this time 100 to 500 nM

Same question, CN(Cc1ccccc1)[C@H]1CC[C@H](N(C)C(=O)N2CC(C)(C)c3ncccc32)CC1 [Example 78] this time < 100 nM

Same question, O=C(N1CC[C@H](NCCc2ccccc2)C1)N1CCc2ncccc21 [Example 97] this time > 1000 nM

Same question, Cc1ccc2c(n1)C(C)(C)CN2C(=O)N1CCC(N(C)Cc2cccc(C(=O)N(C)C)c2)CC1 [Example 63] this time > 1000 nM

Same question, CC1(C)CN(C(=O)NC2CCN(Cc3cccc(F)c3)CC2)c2cccnc21 [Example 47] this time > 1000 nM

Same question, COc1ccc(C(CNC(=O)N2CC(C)(C)c3nc(C)ccc32)N(C)C)cc1 (centres unmarked) [Example 13] this time > 1000 nM

Same question, Cc1ccc2c(n1)C(C)(C)CN2C(=O)[C@H]1CC[C@H](N(C)Cc2ccc(C#N)c(F)c2)CC1 [Example 180] this time < 100 nM

Same question, CC1(C)CN(C(=O)N2CCC3(CCN(Cc4ncccc4F)CC3)C2)c2cccnc21 [Example 153] this time 100 to 500 nM
